Source of measurements: PubChem BioAssay (NCI)

Record form. Attribute: growth. Fill in for each entry.
- System: PC-3 prostate
- protocolNotes: NCI-60 one-dose screen, 48 h (100 = growth as untreated, 0 = no growth, -100 = all killed)
- measurementConditions: 10 µM unless noted
This is part of a sample that, as a whole, favours compounds with a hit. Of some 83,000 tested, about 20% had one in any assay.
# unit: % | format: bare number

Query: Name the recorded growth of the molecule listed here: COc1cccc2cc(N(C)c3nc(C)nc4ccsc34)ccc12
Response: 12.7

Query: Name the recorded growth of the molecule listed here: COc1ccc(C2NCCc3c2[nH]c2ccccc32)cc1CN1CCN(c2ccc(F)cc2)CC1 (centres undefined)
Response: 44.8

Query: Name the recorded growth of the molecule listed here: COC(=O)C1=C(C)NC(C)=C(C(=O)OC)C(N2C(=O)CCC2=O)C1 (centres undefined)
Response: 84.6

Query: Name the recorded growth of the molecule listed here: O=C(CCc1nnc2sc(Cc3ccccc3Cl)nn12)c1nc2ncccc2[nH]1
Response: 85.6

Query: Name the recorded growth of the molecule listed here: COC(=O)[C@H](NC(=O)C1(C)CCC[C@]2(C)[C@H]3C[C@H]4C(C(C)C)=C[C@]3(CC[C@@H]12)[C@@H]1C(=O)CCC(=O)[C@@H]14)C(C)C (some centres undefined)
Response: 90.8

Query: Name the recorded growth of the molecule listed here: COc1ccc2oc(=O)cc(Cn3cc(Cn4cnc5c4c(=O)n(C)c(=O)n5C)nn3)c2c1
Response: 102

Query: Name the recorded growth of the molecule listed here: N#C/C(=C\c1c(-c2ccccc2)[nH]c2ccccc12)S(=O)(=O)c1ccccc1
Response: 5.37

Query: Name the recorded growth of the molecule listed here: Cc1ccc(C)c(-c2csc(Nc3ccc(C)c(C)c3)n2)c1
Response: 63.9

Query: Name the recorded growth of the molecule listed here: COC(=O)C1(C)CCC[C@]2(C)[C@H]3C[C@H]4C(C(C)C)=C[C@]3(CC[C@@H]12)[C@H]1[C@@H]4[C@@H](OCC#CCN2CCOCC2)CC[C@@H]1OCC#CCN1CCOCC1 (some centres undefined)
Response: 53.9
